Target Under Test: T1, CLDN6 endogenously expressed by human cancer cell lines (ARK2, OVCA429) (human, UniProt P56747 1-220)
T1 construct: Untagged endogenous protein; also called Endogenous CLDN6+
T1 sequence: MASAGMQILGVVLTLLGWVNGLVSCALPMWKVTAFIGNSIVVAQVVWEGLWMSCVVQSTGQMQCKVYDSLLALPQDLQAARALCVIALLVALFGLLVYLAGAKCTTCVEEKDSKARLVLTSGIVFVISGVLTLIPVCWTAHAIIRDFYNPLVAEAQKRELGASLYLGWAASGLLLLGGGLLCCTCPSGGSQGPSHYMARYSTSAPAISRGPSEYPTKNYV
Protocol Notes: FACS, 0.3 µg Ab, ARK2 cells
We begin with a simple list: items and their reported FACS fluorescence.
Lab note: record just the number, no unit beside it.

| Binder | FACS fluorescence |
| --- | --- |
| AB4-5 (antibody, V domains shown, also called Humanized AB 4-5) VH: QVQLVQSGAEVKKPGASVKMSCKASGYTFTSYTMHWIRQAPGQGQEWIGYINPSSTYTHYAQKFQGRATLTADTSTSTAYMELSSLRSEDTAVYYCSRGELGGFAYWGQGTLVTVSS VL: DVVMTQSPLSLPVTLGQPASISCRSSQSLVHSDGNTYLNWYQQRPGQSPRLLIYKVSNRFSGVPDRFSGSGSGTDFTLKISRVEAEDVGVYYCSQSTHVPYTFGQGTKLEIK | 967 |
| AB3-2 (antibody, V domains shown, also called Humanized AB 3-2) VH: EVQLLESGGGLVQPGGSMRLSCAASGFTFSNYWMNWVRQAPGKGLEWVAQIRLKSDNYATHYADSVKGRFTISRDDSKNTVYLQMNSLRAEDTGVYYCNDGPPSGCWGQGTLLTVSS VL: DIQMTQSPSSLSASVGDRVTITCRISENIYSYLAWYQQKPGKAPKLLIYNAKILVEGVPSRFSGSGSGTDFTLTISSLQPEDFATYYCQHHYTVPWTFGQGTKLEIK | 14700 |

Next item in the queue.
Fill blank: measured FACS fluorescence of the binder AB11-2 (antibody, V domains shown, also called Humanized AB 11-2) VH: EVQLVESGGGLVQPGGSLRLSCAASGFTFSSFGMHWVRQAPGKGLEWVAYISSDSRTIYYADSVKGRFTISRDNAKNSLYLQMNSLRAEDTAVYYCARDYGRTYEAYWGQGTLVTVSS VL: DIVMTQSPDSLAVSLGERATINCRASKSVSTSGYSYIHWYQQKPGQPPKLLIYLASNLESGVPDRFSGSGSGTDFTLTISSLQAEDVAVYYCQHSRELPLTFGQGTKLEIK is ____.
1400
